Origin of measurements: patent US10785978B2

// values below are reported % Repellency at 24 hours
# System: brown marmorated stink bugs (BMSB)
# procedure_details: Brown marmorated stink bug repellency, treated vs. untreated filter paper arena
# Type: in vivo
# conditions_used: 2.5% in isopropyl alcohol

Worked set:
{"molecule": "CCCCCC1C(=O)CCC1CC(=O)OCCC (centres unmarked) [Propyl dihydrojasmonate, propyl dihydrojasmonate]", "result": "80%"}
{"molecule": "CCCCCCCCCCC1CCC(=O)O1 (centres unmarked)", "result": "82%"}
{"molecule": "CCCCCC1C(=O)CCC1CC(=O)OC (centres unmarked) [Methyl dihydrojasmonate, methyl dihydrojasmonate]", "result": "74%"}
{"molecule": "CCCCCCCCCC1(C)CCC(=O)O1 (centres unmarked)", "result": "80%"}

// % Repellency at 24 hours value for CC1CCC(C(C)(C)O)C(O)C1 (centres unmarked) [PMD, p-Menthane-3,8-diol, reference compound] : 80%

====

# Tested on: stable flies
# procedure_details: Stable fly probing on treated warmed blood-filled membranes
# Type: in vivo
# conditions_used: 15% in isopropyl alcohol on membrane; twenty minutes; percent of control probes taken as 100%
readout_name: Probes at 15% test compound (%)
Output spec: scalar in %, unitless text.

Worked set:
{"compound": "CCCCCC1C(=O)CCC1CC(=O)OC (stereo not shown) [Methyl dihydrojasmonate, methyl dihydrojasmonate]", "tested_system": "stable flies", "readout_number": 3.2}
{"compound": "CCN(CC)C(=O)c1cccc(C)c1 [DEET ®, N,N-Diethyl-m-toluamide, reference compound]", "tested_system": "stable flies", "readout_number": 16.2}
{"compound": "CCC(C)=CCCC(C)=CCC1CCCC1=O (stereo not shown)", "tested_system": "stable flies", "readout_number": 7.4}

The value of Probes at 15% test compound recorded for CCCCCCCCC1CCC(=O)O1 (stereo not shown) when tested on stable flies reads 3.6

====

# Tested on: Brown Dog Ticks, Rhipicephalus sanguineus
# Assay type: in vivo
# conditions_used: in vivo
// values below are reported 24 hr mortality (%)
Output spec: scalar in %, unitless text.

Worked set:
{"molecule": "CCCCCC1C(=O)CCC1CC(=O)OC (stereo not shown) [Methyl dihydrojasmonate, methyl dihydrojasmonate]", "readout_name": "24 hr mortality (%)", "readout_number": 76}
{"molecule": "CCCCCC1CC(C)=CC(O)C1 (stereo not shown)", "readout_name": "24 hr mortality (%)", "readout_number": 12}
{"molecule": "CCC(C)=CCCC(C)=CCC1CCCC1=O (stereo not shown)", "readout_name": "24 hr mortality (%)", "readout_number": 100}

Now for the molecule whose 24 hr mortality (%) we want.
The value of 24 hr mortality (%) recorded for CCCCCCCCC1CCC(=O)O1 (stereo not shown) when tested on Brown Dog Ticks, Rhipicephalus sanguineus reads 100

====

# System: Brown Dog Ticks
# procedure_details: Second repellent assay against Brown Dog Ticks
# Format: in vivo
# conditions_used: 15% in isopropyl alcohol
// values below are reported Mean % repelled
Output spec: scalar in %, unitless text.

Worked set:
{"molecule": "CCCCCC1C(=O)CCC1CC(=O)OC (stereo not shown) [Methyl dihydrojasmonate, methyl dihydrojasmonate]", "readout_name": "Mean % repelled", "readout_number": 100}
{"molecule": "CCC(C)=CCCC(C)=CCC1CCCC1=O (stereo not shown)", "readout_name": "Mean % repelled", "readout_number": 100}
{"molecule": "CCCCCCCCCCC1CCC(=O)O1 (stereo not shown)", "readout_name": "Mean % repelled", "readout_number": 92}

Now for the molecule whose Mean % repelled we want.
// Mean % repelled value for CCCCCC1C(=O)CCC1CC(=O)OCCC (stereo not shown) [Propyl dihydrojasmonate, propyl dihydrojasmonate] : 100
